Consider the following binders; for each one, report its SPOT intensity.
# targetOrTestSystem: Myo3, P36006
# assayExplanation: SPOT array
# experimentalConditions: median of control spots 468
The reply should be a number, written without any unit.

Data request: Given the entry `NRARYLPQNPDIIAG` , report its measured SPOT intensity.
Data returned: 0

Data request: Reported SPOT intensity, binder `GLRRARYKFPGQQKI` : ____
Data returned: 4

Data request: State the recorded SPOT intensity for this entry: `QHQQRQPKRPKRYSL`
Data returned: 2

Data request: If you can, please state the reported SPOT intensity value of `DHPKGPPPPPPPDEK` .
Data returned: 431

Data request: Consider the binder `NPNRRAPRRPLSTQH` and give its measured SPOT intensity.
Data returned: 46

Data request: Return reported SPOT intensity; argument: `RHLKLVPSTPMDIPW`
Data returned: 81

Data request: # query: SPOT intensity of entry `NRPAIRIPSLKKPAL`
Data returned: 3
